# TARGET OR TEST SYSTEM: Tetracycline repressor protein (TetR) (UniProt P04483 P04483:1-207)
# Sequence (P04483 whole entry, one chain of several): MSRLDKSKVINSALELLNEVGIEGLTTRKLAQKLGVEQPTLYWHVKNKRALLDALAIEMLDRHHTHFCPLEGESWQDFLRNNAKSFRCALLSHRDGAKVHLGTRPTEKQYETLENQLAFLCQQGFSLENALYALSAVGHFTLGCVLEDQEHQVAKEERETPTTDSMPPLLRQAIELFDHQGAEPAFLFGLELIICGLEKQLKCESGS
# PROTOCOL DESCRIPTION: flow; 50 mM Tris pH 8.0, 50 mM KCl, 5 mM MgCl2, room temperature; repression 91% cell-free, 81% yeast
# MEASUREMENT PARAMETERS: tags: N-terminal T7 tag, C-terminal His6 (pET24a); chain copies: 2 (inferred, TetR dimer); label: 3' fluorescein; stem-loop
PARAMETER MEASURED: Kd (nM)
Kindly answer with a numeric value in nM, unit omitted.

Q) Quick one: Kd for 5-1.2 (ssRNA) RNA: GGAUCCAGGCAGAGAAAGGUCGAUACGGACGGAAUGUGAUGGCCUGGAUCC ?
A) 1.6
